# Measured target: Ret wt (Homo sapiens)
# Construct: purchased Invitrogen PV3082
# Sequence (P07949 29-1114): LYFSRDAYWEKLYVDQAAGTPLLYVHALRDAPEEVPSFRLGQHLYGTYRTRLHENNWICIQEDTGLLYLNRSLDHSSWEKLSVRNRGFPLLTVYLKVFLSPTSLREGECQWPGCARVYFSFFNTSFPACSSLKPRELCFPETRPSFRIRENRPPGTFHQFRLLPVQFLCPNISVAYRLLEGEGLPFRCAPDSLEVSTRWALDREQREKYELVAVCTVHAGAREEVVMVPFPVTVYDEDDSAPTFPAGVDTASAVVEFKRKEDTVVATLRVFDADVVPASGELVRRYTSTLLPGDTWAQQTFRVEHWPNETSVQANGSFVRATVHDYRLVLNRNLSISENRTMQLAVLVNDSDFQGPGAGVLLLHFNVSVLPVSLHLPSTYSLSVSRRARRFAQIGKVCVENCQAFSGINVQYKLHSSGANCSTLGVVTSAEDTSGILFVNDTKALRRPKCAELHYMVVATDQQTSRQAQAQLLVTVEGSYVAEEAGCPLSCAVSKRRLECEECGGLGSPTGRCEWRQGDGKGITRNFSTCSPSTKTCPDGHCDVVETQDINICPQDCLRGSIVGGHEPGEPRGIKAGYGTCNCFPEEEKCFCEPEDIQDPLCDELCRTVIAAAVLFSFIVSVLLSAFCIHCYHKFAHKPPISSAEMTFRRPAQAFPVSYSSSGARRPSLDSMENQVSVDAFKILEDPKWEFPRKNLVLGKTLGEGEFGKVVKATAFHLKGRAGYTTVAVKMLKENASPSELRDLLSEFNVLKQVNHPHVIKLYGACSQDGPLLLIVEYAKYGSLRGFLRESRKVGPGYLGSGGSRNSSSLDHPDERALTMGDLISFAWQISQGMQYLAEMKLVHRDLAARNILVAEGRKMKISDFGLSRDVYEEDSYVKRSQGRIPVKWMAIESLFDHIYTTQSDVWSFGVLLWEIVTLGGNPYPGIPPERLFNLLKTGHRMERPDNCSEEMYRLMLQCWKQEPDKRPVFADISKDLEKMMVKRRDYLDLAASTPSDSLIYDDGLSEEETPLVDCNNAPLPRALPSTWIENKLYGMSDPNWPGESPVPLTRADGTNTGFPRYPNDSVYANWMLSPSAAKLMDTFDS
# Assay details: HTRF kinase activity test, RET wild type
# Assay type: biochemical
# Measurement setup: Table 2; read-out: IC50 (nM) RET wt

| Compound | Uom | IC50 |
| --- | --- | --- |
| Cn1cc(-c2cc(-c3ccc(N4CCN(C(=O)Cc5ccc(F)cn5)CC4)nc3)c3c(C#N)c(N)nn3c2)cn1 [APS069] | nM | 0.325 |
| Cn1cc(-c2cc(-c3ccc(N4CCC(Cc5ccccn5)CC4)nc3)c3c(C#N)c(N)nn3c2)cn1 [APS070] | nM | 0.418 |

* * *

// values below are reported pIC50
# Measured target: RET (V804M) (Homo sapiens, UniProt P07949, V804M)
# Sequence (P07949 29-1114 V804M): as the sequence (P07949 29-1114) above, with V776M counted along it
# Assay details: HTRF kinase activity test, RET V804M
# Measurement setup: Table 3; read-out: RET Enzyme (V804M) IC50
# Method: This test combined peptide substrates and a single proprietary monoclonal antibody with HTRF technology, which was a highly sensitive and stable technology for detecting molecular interactions of proteins. […] Based on this, the inhibitory effect was evaluated. […] m) reading the fluorescence signal values at 615 nm (Cryptate) and 665 nm (XL665) on the Envision 2104 plate reader. […] The inhibition rate % was calculated as follows: […] Ratio: generated from the measured fluorescence signal value […]
pIC50: −log10 of the molar value. Structures can show the parent of a compound that is named as a salt.
Quantity name: pIC50

| Compound | Quantity name | Readout relation | Val |
| --- | --- | --- | --- |
| COc1ccc(CN2C3CC2CN(c2cnc(-c4cc(OC[C@@H]5CNCCO5)cn5nc(N)c(C#N)c45)cn2)C3)cn1 [APS087, trifluoroacetate] | pIC50 | > | 9.00 |
| COc1ccc(CN2C3CC2CN(c2ccc(-c4cc(OCC(C)(C)O)cn5nc(N)c(C(N)=O)c45)cn2)C3)cn1 [APS106] | pIC50 | = | 6.01 |
| COc1ccc(CN2C3CC2CN(c2ccc(-c4cc(OCC(C)(C)O)cn5nc(OC)c(C#N)c45)cn2)C3)cn1 [APS091] | pIC50 | = | 6.02 |
| CCOc1cc(-c2ccc(N3CC4CC(C3)N4Cc3ccc(OC)nc3)nc2)c2c(C#N)c(N)nn2c1 [APS095] | pIC50 | > | 9.00 |
| CCOc1cc(-c2ccc(N3CC4CC(C3)N4Cc3cnc(OC)c(Cl)c3)nc2)c2c(C#N)c(N)nn2c1 [APS105] | pIC50 | > | 9.00 |
| COc1ccc(CN2C3CC2CN(c2ccc(-c4cc(OCC(C)(C)O)cn5nc(N)c(C#N)c45)cn2)C3)cn1 [APS089] | pIC50 | = | 8.80 |
| CCOc1cc(-c2cnc(N3CC4CC(C3)N4Cc3ccc(OC)nc3)cn2)c2c(C#N)c(N)nn2c1 [APS092] | pIC50 | = | 8.57 |
| COc1ccc(CN2C3CC2CN(c2ccc(-c4cc(OCC(C)(C)O)cn5nc(NC(C)=O)c(C#N)c45)cn2)C3)cn1 [APS093] | pIC50 | = | 5.81 |
| COCCOc1cc(-c2ccc(N3CC4CC(C3)N4Cc3ccc(OC)nc3)nc2)c2c(C#N)c(F)nn2c1 [APS098] | pIC50 | = | 7.07 |
| COCCOc1cc(-c2ccc(N3CC4CC(C3)N4Cc3ccc(OC)nc3)nc2)c2c(C#N)c(NC(C)=O)nn2c1 [APS103] | pIC50 | = | 6.81 |
| COc1ccc(CN2C3CC2CN(c2ccc(-c4cc(OCC(C)(C)O)cn5nc(NCCO)c(C#N)c45)cn2)C3)cn1 [APS094] | pIC50 | = | 6.31 |
| COc1ccc(CN2C3CC2CN(c2ccc(-c4cc(OCC(F)F)cn5nc(N)c(C#N)c45)cn2)C3)cn1 [APS114] | pIC50 | > | 9.00 |
| COc1ccc(CN2C3CC2CN(c2ccc(-c4cc(OCCF)cn5nc(N)c(C#N)c45)cn2)C3)cn1 [APS119] | pIC50 | > | 9.00 |
| COc1ccc(CN2C3CC2CN(c2ccc(-c4cc(OCCOC5CC5)cn5nc(N)c(C#N)c45)cn2)C3)cn1 [APS113] | pIC50 | > | 9.00 |
| COCCOc1cc(-c2ccc(N3CC4CC(C3)N4Cc3cnc(OC)c(Cl)c3)nc2)c2c(C#N)c(N)nn2c1 [APS108] | pIC50 | > | 9.00 |
